experimental_target: CXCR4 (Homo sapiens, UniProt P61073)
Sequence (P61073 whole entry): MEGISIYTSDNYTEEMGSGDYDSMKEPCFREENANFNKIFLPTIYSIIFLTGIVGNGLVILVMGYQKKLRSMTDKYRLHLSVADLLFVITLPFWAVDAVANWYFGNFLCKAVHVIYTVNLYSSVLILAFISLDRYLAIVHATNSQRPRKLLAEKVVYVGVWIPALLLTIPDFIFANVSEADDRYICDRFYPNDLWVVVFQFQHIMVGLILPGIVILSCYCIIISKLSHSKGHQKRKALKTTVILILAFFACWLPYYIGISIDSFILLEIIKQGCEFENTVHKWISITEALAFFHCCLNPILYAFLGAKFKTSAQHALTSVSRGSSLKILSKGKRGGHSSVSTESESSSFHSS
method_summary: Chemotaxis assay, effect on SDF1-a (CXCL12) induced migration of CCRF-CEM cells
Assay type: cell-based
Design: a human T-cell ALL line that endogenously expresses CXCR4; endogenous in cells; host or cells: CCRF-CEM (human T-cell ALL line)
condition_label: CCRF-CEM, Table 18, i1 loop; CEM cells; drug conc 1.0 uM; read-out: AUC (% of)
Peptide text beside a SMILES is read from it. * marks the point of attachment. Palmitoyl = CCCCCCCCCCCCCCCC(=O)*

# compound, experimental_target, activity at 1 µM (%)
measured = [
    ("CCCCCCCCCCCCCCCC(=O)N[C@@H](CCSC)C(=O)NCC(=O)N[C@@H](Cc1ccc(O)cc1)C(=O)N[C@@H](CCC(N)=O)C(=O)N[C@@H](CCCCN)C(=O)N[C@@H](CCCCN)C(=O)N[C@@H](CC(C)C)C(=O)N[C@@H](CCCNC(=N)N)C(=O)N[C@@H](CO)C(=O)N[C@@H](CCSC)C(=O)N[C@H](C(=O)N[C@@H](CC(=O)O)C(=O)N[C@@H](CCCCN)C(=O)N[C@@H](Cc1ccc(O)cc1)C(N)=O)[C@@H](C)O [Compound 37] (Palmitoyl-MGYQKKLRSMTDKY-NH2)", "CXCR4 (Homo sapiens, UniProt P61073)", 92.3),
]

---

experimental_target: CXCR4 (Homo sapiens, UniProt P61073)
method_summary: Chemotaxis assay, effect on SDF1-a (CXCL12) induced migration of CCRF-CEM cells
Assay type: cell-based
Parameters: a human T-cell ALL line that endogenously expresses CXCR4; endogenous in cells; host or cells: CCRF-CEM (human T-cell ALL line)
condition_label: Table 20, i3 loop; CEM cells; conc 1.0 uM
Square brackets hold non-standard residues; d marks the D form. Peptide text beside a SMILES is read from it. * marks the point of attachment. ξ: configuration not given here. Biotin = O=C1N[C@H]2[C@H](CS[C@H]2CCCCC(=O)*)N1; ξGly(nC16H33) = CCCCCCCCCCCCCCCCC(N)C(=O)O; Palmitoyl = CCCCCCCCCCCCCCCC(=O)*
Measured Peak Test Compound, listed per entry for reference.

# molecule, units, Peak Test Compound
data = [
    ("CCCCCCCCCCCCCCCCC(NC(=O)CCCC[C@@H]1SC[C@@H]2NC(=O)N[C@@H]21)C(=O)N[C@@H](Cc1cnc[nH]1)C(=O)N[C@@H](CO)C(=O)N[C@@H](CCCCN)C(=O)NCC(=O)N[C@@H](Cc1cnc[nH]1)C(=O)N[C@@H](CCC(N)=O)C(=O)N[C@@H](CCCCN)C(=O)N[C@@H](CCCNC(=N)N)C(=O)N[C@@H](CCCCN)C(=O)N[C@@H](C)C(=O)N[C@@H](CC(C)C)C(=O)N[C@@H](CCCCN)C(N)=O (stereo partly shown) [Compound 87] (Biotin-[ξGly(nC16H33)]HSKGHQKRKALK-NH2)", "nM", 0.2),
    ("CCCCCCCCCCCCCCCC(=O)N[C@@H](Cc1cnc[nH]1)C(=O)N[C@@H](CO)C(=O)N[C@@H](CCCCN)C(=O)NCC(=O)N[C@@H](Cc1cnc[nH]1)C(=O)N[C@@H](CCC(N)=O)C(=O)N[C@@H](CCCCN)C(=O)N[C@@H](CCCNC(=N)N)C(=O)N[C@@H](CCCCN)C(=O)N[C@@H](C)C(=O)N[C@@H](CC(C)C)C(=O)N[C@@H](CCCCN)C(=O)N[C@H](C(N)=O)[C@@H](C)O [Compound 97] (Palmitoyl-HSKGHQKRKALKT-NH2)", "nM", 1),
    ("CCCCCCCCCCCCCCCC(=O)N[C@@H](Cc1cnc[nH]1)C(=O)N[C@@H](CO)C(=O)N[C@@H](CCCCN)C(=O)NCC(=O)N[C@@H](Cc1cnc[nH]1)C(=O)N[C@@H](CCC(N)=O)C(=O)N[C@@H](CCCCN)C(=O)N[C@@H](CCCNC(=N)N)C(=O)N[C@@H](CCCCN)C(=O)N[C@@H](C)C(=O)N[C@@H](CC(C)C)C(=O)N[C@@H](CCCCN)C(=O)N[C@H](C(=O)N[C@H](C(=O)N[C@H](C(N)=O)C(C)C)[C@@H](C)O)[C@@H](C)O [Compound 99] (Palmitoyl-HSKGHQKRKALKTTV-NH2)", "nM", 0.2),
    ("CCCCCCCCCCCCCCCC(=O)N[C@@H](CC(C)C)C(=O)N[C@@H](CO)C(=O)N[C@@H](Cc1cnc[nH]1)C(=O)N[C@@H](CO)C(=O)N[C@@H](CCCCN)C(=O)NCC(=O)N[C@@H](Cc1cnc[nH]1)C(=O)N[C@@H](CCC(N)=O)C(=O)N[C@@H](CCCCN)C(=O)N[C@@H](CCCNC(=N)N)C(=O)N[C@@H](CCCCN)C(=O)N[C@@H](C)C(=O)N[C@@H](CC(C)C)C(=O)N[C@@H](CCCCN)C(N)=O [Compound 95] (Palmitoyl-LSHSKGHQKRKALK-NH2)", "nM", 1),
]

---

experimental_target: CXCR4 (Homo sapiens, UniProt P61073)
method_summary: Chemotaxis assay using SUP B-15 cells
Type: cell-based
Parameters: A similar procedure was followed for chemotaxis using SUP B-15 cells; endogenous in cells; host or cells: SUP B-15 cells
condition_label: SUP-B15; Table 18, i1 loop; SUP B-15 cells; drug conc 1.0 uM; read-out: AUC (% of)
Description: Chemotaxis assays were utilized to determine the effect of compound on the directed migration of cells in response to chemokine. […] Conversely, agonist activity was determined by adding compound in the bottom chamber only without endogenous chemokine. The effect of compound is quantified by several parameters, including the extent of maximum response, the shift of agonist dose-response curves, and the area under the curve. […]
Peptide text beside a SMILES is read from it. * marks the point of attachment. Palmitoyl = CCCCCCCCCCCCCCCC(=O)*
Measured activity at 1 µM, listed per entry for reference.

# compound, activity at 1 µM [%]
data = [
    ("CCCCCCCCCCCCCCCC(=O)N[C@@H](CCSC)C(=O)NCC(=O)N[C@@H](Cc1ccc(O)cc1)C(=O)N[C@@H](CCC(N)=O)C(=O)N[C@@H](CCCCN)C(=O)N[C@@H](CCCCN)C(=O)N[C@@H](CC(C)C)C(=O)N[C@@H](CCCNC(=N)N)C(=O)N[C@@H](CO)C(=O)N[C@@H](CCSC)C(=O)N[C@H](C(=O)N[C@@H](CC(=O)O)C(=O)N[C@@H](CCCCN)C(=O)N[C@@H](Cc1ccc(O)cc1)C(N)=O)[C@@H](C)O [Compound 37] (Palmitoyl-MGYQKKLRSMTDKY-NH2)", 63.5),
    ("CCCCCCCCCCCCCCCC(=O)N[C@@H](CCCCN)C(=O)N[C@@H](CCCCN)C(=O)N[C@@H](CC(C)C)C(=O)N[C@@H](CCCNC(=N)N)C(=O)N[C@@H](CO)C(=O)N[C@@H](CCSC)C(=O)N[C@H](C(=O)N[C@@H](CC(=O)O)C(=O)N[C@@H](CCCCN)C(=O)N[C@@H](Cc1ccc(O)cc1)C(=O)N[C@@H](CCCNC(=N)N)C(=O)N[C@@H](CC(C)C)C(=O)N[C@@H](Cc1cnc[nH]1)C(=O)N[C@@H](CC(C)C)C(N)=O)[C@@H](C)O [Compound 42] (Palmitoyl-KKLRSMTDKYRLHL-NH2)", 43.8),
]

---

Measured Max (% of vehicle), listed per entry for reference.
experimental_target: CXCR4 (Homo sapiens, UniProt P61073)
method_summary: Chemotaxis assay, effect on SDF1-a (CXCL12) induced migration of CCRF-CEM cells
Format: cell-based
Parameters: a human T-cell ALL line that endogenously expresses CXCR4; endogenous in cells; host or cells: CCRF-CEM (human T-cell ALL line)
condition_label: Table 20, i3 loop; CEM cells; conc 1.0 uM
Ends that are not written are not given here.
parameter: Max (% of vehicle)

# substance, parameter, recorded_result
rows = [
    ("104: CXCR4 i3 loop compound (IIISKLSHSKGHQKRKALKT) [Compound 104]", "Max (% of vehicle)", "56.39 % of vehicle"),
    ("89: CXCR4 i3 loop compound (KLSHSKGHQKRKALKTTVIL) [Compound 89]", "Max (% of vehicle)", "59.71 % of vehicle"),
    ("102: CXCR4 i3 loop compound (IIISKLSHSKGHQKRKALKT) [Compound 102]", "Max (% of vehicle)", "0.24 % of vehicle"),
    ("96: CXCR4 i3 loop compound (SHSKGHQKRKALK; also: lipid Pal, place not given here) [Compound 96]", "Max (% of vehicle)", "63.12 % of vehicle"),
    ("101: CXCR4 i3 loop compound (SKLSHSKGHQKRKALK) [Compound 101]", "Max (% of vehicle)", "74.92 % of vehicle"),
    ("103: CXCR4 i3 loop compound (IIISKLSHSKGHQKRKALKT) [Compound 103]", "Max (% of vehicle)", "24.45 % of vehicle"),
]
